These entries and their values trace back to paper PMC5394233.

Molecular target: T1, flPOT1 P446Q (Homo sapiens, UniProt Q9NUX5 1-634, P446Q)
T1 sequence: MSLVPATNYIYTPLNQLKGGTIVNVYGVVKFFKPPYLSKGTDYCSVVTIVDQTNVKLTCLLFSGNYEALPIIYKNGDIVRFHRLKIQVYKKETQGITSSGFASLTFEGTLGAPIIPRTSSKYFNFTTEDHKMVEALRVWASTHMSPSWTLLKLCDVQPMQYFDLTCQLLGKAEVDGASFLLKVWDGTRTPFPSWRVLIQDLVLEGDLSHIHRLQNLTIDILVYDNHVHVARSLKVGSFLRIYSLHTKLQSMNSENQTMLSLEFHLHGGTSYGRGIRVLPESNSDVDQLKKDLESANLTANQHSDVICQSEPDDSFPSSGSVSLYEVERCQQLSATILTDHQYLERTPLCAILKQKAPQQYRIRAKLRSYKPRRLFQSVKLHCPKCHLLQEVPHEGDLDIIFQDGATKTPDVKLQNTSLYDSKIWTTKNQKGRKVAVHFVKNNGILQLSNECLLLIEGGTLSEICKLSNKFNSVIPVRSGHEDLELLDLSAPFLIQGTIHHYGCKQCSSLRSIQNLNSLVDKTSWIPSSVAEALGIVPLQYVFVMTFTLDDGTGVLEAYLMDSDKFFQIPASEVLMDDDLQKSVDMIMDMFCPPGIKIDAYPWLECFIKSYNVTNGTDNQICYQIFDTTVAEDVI
Assay: fluorescence polarization; FP: 20 mM Hepes pH 7.5, 100 mM KCl, 2 mM MgCl2, 1 mM EDTA, 2 mM DTT, 1 mg/ml BSA, 5% glycerol, 75 nM polyT50 competitor, 2.5 nM probe, room temperature 30 min
Conditions: protein: recombinant; tags: N-terminal His6-pMocr, TEV-cleaved; label: 5' 6-FAM; single strand
pKd: −log10 of the molar value.
measurement.name: pKd

INPUT: Reported pKd, binder TTAGGGTTAGGGTTAGGG (ssDNA) [telomeric 18mer (TTAGGG)3] : ____
OUTPUT: ~7.70
